# Tested on: Plasmodium berghei
# ASSAY EXPLANATION: Screen against P. berghei liver stage (PbLuc), transformed with Luciferase, at 10uM
# Format: functional, HepG2
# CONDITIONS: tested at 10 uM
Among all 69,000 compounds or so, about 8,600 (12%) showed an effect of 50% or more. The list comes from a sample in which strong results are over-represented; it also holds close analogues and randomly drawn compounds.
Simple rule here: INHIBITION less than 20% is MET, otherwise NOT MET.

| COMPOUND STRING | ASSAYED SYSTEM | CLASSIFICATION |
| --- | --- | --- |
| CCS(=O)(=O)N1CCN(Cc2cccnc2)c2nc(C)ccc2C1 | Plasmodium berghei | NOT MET |

Input COCCN1C[C@@H]2CN(c3ncc(F)cn3)C[C@@H]2C1=O ; condition: INHIBITION strictly below 20%. Does it hold?
NOT MET

Input COc1cc(N2C[C@H]3CCC[C@@H](CN(C)C4CC4)[C@H]3C2)ncn1 ; condition: INHIBITION strictly below 20%. Does it hold?
NOT MET

Input COc1ccc(CN(C)C(=O)CSc2nnc(N)s2)c(OC)c1OC ; condition: INHIBITION strictly below 20%. Does it hold?
MET

Input COc1ccc2nnc(CCCC(=O)Nc3nc4c(s3)CCC4)n2n1 ; condition: INHIBITION strictly below 20%. Does it hold?
NOT MET

Input COc1ccc(-c2cc(C3=NC(=CN4CCN(C)CC4)NO3)[nH]n2)cc1 ; condition: INHIBITION strictly below 20%. Does it hold?
NOT MET

Input Cc1ccc(N2C[C@H]3CCC[C@@H](CN(C)C)[C@H]3C2)nn1 ; condition: INHIBITION strictly below 20%. Does it hold?
MET

Input Cc1cnc(C(=O)N2C[C@@H]3CN(CC4CCCC4)CCO[C@@H]3C2)cn1 ; condition: INHIBITION strictly below 20%. Does it hold?
MET

Input COCCN1C[C@@H]2CN(c3ncccn3)C[C@@H]2C1=O ; condition: INHIBITION strictly below 20%. Does it hold?
MET

Input c1cnn(C2CN(c3ncnc4[nH]ccc34)C2)c1 ; condition: INHIBITION strictly below 20%. Does it hold?
MET
